Where do these numbers come from? They come from paper PMC10485906.

assay: Mouse plasma and brain pharmacokinetics, IP administration; type: in vivo; details: male, C57BL/6, mouse, plasma; 10 mg/kg IP
MEASURE_NAME: Cmax
Give the number first and the unit second.

Problem: Can you look up the measured Cmax of O=C(O)CC(F)(F)C(=O)N1N=C(c2c(-c3ccc(Cl)cc3)c3ccccc3[nH]c2=O)CC1c1ccc(Cl)cc1 (stereo not shown) for me?
Result: 3.3 µM

---

assay: Mouse plasma and brain pharmacokinetics, IP administration; format: in vivo; conditions: male, C57BL/6, mouse, plasma, intraperitoneal, 10 mg/kg, 10 mg/kg IP; 2 hr; read-out: plasma concentration, individual (Group 1-3)
MEASURE_NAME: concentration at 2 h (ng/mL)
# unit: ng/mL | format: bare number

Problem: Can you look up the measured concentration at 2 h of O=C(O)CC(F)(F)C(=O)N1N=C(c2c(-c3ccc(Cl)cc3)c3ccccc3[nH]c2=O)CC1c1ccc(Cl)cc1 (stereo not shown) for me?
Result: 1060

---

test: Mouse plasma and brain pharmacokinetics, IP administration; assay type: in vivo; settings: male, C57BL/6, mouse, plasma, intraperitoneal, 10 mg/kg, 10 mg/kg IP; 0.25 hr; read-out: plasma concentration, Mean
MEASURE_NAME: concentration at 0.25 h (ng/mL)
# unit: ng/mL | format: bare number

Problem: Can you look up the measured concentration at 0.25 h of O=C(O)CC(F)(F)C(=O)N1N=C(c2c(-c3ccc(Cl)cc3)c3ccccc3[nH]c2=O)CC1c1ccc(Cl)cc1 (stereo not shown) for me?
Result: 1310

---

Overview of reported I / I control GluN2C across a group of compounds:
target: GluN1/GluN2C (Rattus norvegicus, UniProt Q00961); assay: Two-electrode voltage-clamp recordings, Xenopus laevis oocytes, GluN1/GluN2C; format: cell-based; parameters: GluN2B (NM_012574.1), GluN2C (NM_012575.3), and GluN2D (NM_022797.2) were provided by; expressed in transfected cells; host or cells: Xenopus laevis oocytes (cRNA injection); conditions: tested at 10 μM (footnote b); 100 μM glutamate, 30 μM glycine; mean ± SEM
Sequence (Q00961 20-1237, other chains not shown): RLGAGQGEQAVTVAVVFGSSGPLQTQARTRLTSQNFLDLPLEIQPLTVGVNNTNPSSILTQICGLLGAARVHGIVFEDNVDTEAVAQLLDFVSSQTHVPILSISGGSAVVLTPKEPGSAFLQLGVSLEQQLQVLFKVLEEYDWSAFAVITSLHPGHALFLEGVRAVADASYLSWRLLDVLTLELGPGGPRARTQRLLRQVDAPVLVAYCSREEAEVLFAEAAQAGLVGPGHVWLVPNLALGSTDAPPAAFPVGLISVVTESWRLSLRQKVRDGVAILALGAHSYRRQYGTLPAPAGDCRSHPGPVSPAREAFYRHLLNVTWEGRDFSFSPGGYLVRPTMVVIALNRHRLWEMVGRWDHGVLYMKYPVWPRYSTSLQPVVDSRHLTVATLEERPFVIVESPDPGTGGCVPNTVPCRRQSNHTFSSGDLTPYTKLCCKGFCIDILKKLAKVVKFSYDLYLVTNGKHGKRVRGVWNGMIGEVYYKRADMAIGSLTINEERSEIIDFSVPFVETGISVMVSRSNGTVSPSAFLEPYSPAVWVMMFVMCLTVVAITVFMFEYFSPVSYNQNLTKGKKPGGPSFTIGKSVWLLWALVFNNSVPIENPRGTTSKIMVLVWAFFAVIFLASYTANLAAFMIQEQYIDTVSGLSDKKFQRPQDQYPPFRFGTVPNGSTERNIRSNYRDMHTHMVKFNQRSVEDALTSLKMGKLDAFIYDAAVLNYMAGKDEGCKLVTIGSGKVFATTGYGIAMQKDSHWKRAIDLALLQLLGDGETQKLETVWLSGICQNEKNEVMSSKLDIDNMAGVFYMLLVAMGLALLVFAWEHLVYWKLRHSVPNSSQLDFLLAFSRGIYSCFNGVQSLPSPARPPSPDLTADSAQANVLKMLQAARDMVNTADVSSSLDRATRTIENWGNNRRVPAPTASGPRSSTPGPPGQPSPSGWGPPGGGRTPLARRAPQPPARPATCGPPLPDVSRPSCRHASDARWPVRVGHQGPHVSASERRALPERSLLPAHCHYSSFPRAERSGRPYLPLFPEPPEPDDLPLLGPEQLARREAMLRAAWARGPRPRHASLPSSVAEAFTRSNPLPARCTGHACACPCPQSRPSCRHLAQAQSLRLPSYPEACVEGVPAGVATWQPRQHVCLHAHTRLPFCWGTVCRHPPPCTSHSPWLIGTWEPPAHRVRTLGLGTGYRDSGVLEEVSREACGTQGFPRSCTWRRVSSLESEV

See these solved cases before continuing.
O=C(O)CCCC(=O)N1N=C(c2c(-c3ccc(Cl)cc3)c3ccccc3[nH]c2=O)CC1c1ccc(Cl)cc1 (stereo not shown)    13 ± 1.3 ^b (1,8) %
CNC(=O)CC(F)(F)C(=O)N1N=C(c2c(-c3ccc(Cl)cc3)c3ccccc3[nH]c2=O)CC1c1ccc(Cl)cc1 (stereo not shown)    16 ± 1.6 ^b (3, 20) %
CN(C)C(=O)CC(F)(F)C(=O)N1N=C(c2c(-c3ccc(Cl)cc3)c3ccccc3[nH]c2=O)CC1c1ccc(Cl)cc1 (stereo not shown)    28 ± 2.2 ^b (4,20) %

As a next step, examine the compound that follows.
Problem: Can you look up the measured I / I control GluN2C of CC(C)(C)COC(=O)CC(F)(F)C(=O)N1N=C(c2c(-c3ccc(Cl)cc3)c3ccccc3[nH]c2=O)CC1c1ccc(Cl)cc1 (stereo not shown) for me?
Result: 87 ± 0.8%

---

biological target: GluN1/GluN2C (Rattus norvegicus, UniProt P35439+Q00961); test: Whole-cell voltage-clamp recordings, HEK cells, GluN1/GluN2C (agonist dependence); type: cell-based; conditions: inhibitor and glycine preapplied; read-out: IC50 peak current responses
MEASURE_NAME: IC50 (µM)
# unit: µM | format: bare number

Problem: Form: Entry = O=C(O)CC(F)(F)C(=O)N1N=C(c2c(-c3ccc(Cl)cc3)c3ccccc3[nH]c2=O)CC1c1ccc(Cl)cc1 (stereo not shown) | System = GluN1/GluN2C (Rattus norvegicus, UniProt P35439+Q00961) | IC50 = ____
Result: 5

---

assay: Kinetic solubility in PBS (nephelometer); assay type: physicochemical; settings: Dulbecco's phosphate-buffered saline (DPBS), 25 °C, pH 7.2, aqueous buffer, kinetic from dmso stock, 1% DMSO, room temperature, n = 7
Overview of reported solubility kinetic at 2 h across a group of compounds:
# unit: µM | format: bare number

O=C(CC(F)(F)C(=O)N1N=C(c2c(-c3ccc(Cl)cc3)c3ccccc3[nH]c2=O)CC1c1ccc(Cl)cc1)OCC1CC1 (stereo not shown)    27
CC(C)OC(=O)CC(F)(F)C(=O)N1N=C(c2c(-c3ccc(Cl)cc3)c3ccccc3[nH]c2=O)CC1c1ccc(Cl)cc1 (stereo not shown)    43
CNC(=O)CC(F)(F)C(=O)N1N=C(c2c(-c3ccc(Cl)cc3)c3ccccc3[nH]c2=O)CC1c1ccc(Cl)cc1 (stereo not shown)    52
CN(C)C(=O)CC(F)(F)C(=O)N1N=C(c2c(-c3ccc(Cl)cc3)c3ccccc3[nH]c2=O)CC1c1ccc(Cl)cc1 (stereo not shown)    43
CCOC(=O)CC(F)(F)C(=O)N1N=C(c2c(-c3ccc(Cl)cc3)c3ccccc3[nH]c2=O)CC1c1ccc(Cl)cc1 (stereo not shown)    43

Problem: Can you look up the measured solubility kinetic at 2 h of O=C(CC(F)(F)C(=O)N1N=C(c2c(-c3ccc(Cl)cc3)c3ccccc3[nH]c2=O)CC1c1ccc(Cl)cc1)OCc1ccccc1 (stereo not shown) for me?
Result: 40

Problem: Can you look up the measured solubility kinetic at 2 h of CC(C)(C)COC(=O)CC(F)(F)C(=O)N1N=C(c2c(-c3ccc(Cl)cc3)c3ccccc3[nH]c2=O)CC1c1ccc(Cl)cc1 (stereo not shown) for me?
Result: 52

---

experiment: Mouse plasma and brain pharmacokinetics, IP administration; type: in vivo; settings: male, C57BL/6, mouse, plasma, intraperitoneal, 10 mg/kg, 10 mg/kg IP; 4 hr; read-out: plasma concentration, Mean
MEASURE_NAME: concentration at 4 h (ng/mL)
# unit: ng/mL | format: bare number

Problem: Can you look up the measured concentration at 4 h of O=C(O)CC(F)(F)C(=O)N1N=C(c2c(-c3ccc(Cl)cc3)c3ccccc3[nH]c2=O)CC1c1ccc(Cl)cc1 (stereo not shown) [2i] for me?
Result: 319

---

Overview of reported remaining at 120 min, 3 µM across a group of molecules:
assay: Plasma stability, human; format: in vitro ADME; details: both sexes, plasma, over the assay time course

O=C(O)CCC(=O)N1N=C(c2c(-c3ccc(Cl)cc3)c3ccccc3[nH]c2=O)CC1c1ccc(Cl)cc1 (centres unmarked)    > 95%

As a next step, examine the molecule that follows.
Problem: Can you look up the measured remaining at 120 min, 3 µM of O=C(O)CC(F)(F)C(=O)N1N=C(c2c(-c3ccc(Cl)cc3)c3ccccc3[nH]c2=O)CC1c1ccc(Cl)cc1 (centres unmarked) for me?
Result: > 95%

---

Overview of reported pIC50 across a group of compounds:
target: GluN1/GluN2A (Rattus norvegicus, UniProt P35439+Q00959); experiment: Two-electrode voltage-clamp recordings, Xenopus laevis oocytes, GluN1/GluN2A; settings: 100 μM glutamate, 30 μM glycine; read-out: IC50 GluN2A [95% CI]
Sequence (Q00959 23-1464, other chains not shown): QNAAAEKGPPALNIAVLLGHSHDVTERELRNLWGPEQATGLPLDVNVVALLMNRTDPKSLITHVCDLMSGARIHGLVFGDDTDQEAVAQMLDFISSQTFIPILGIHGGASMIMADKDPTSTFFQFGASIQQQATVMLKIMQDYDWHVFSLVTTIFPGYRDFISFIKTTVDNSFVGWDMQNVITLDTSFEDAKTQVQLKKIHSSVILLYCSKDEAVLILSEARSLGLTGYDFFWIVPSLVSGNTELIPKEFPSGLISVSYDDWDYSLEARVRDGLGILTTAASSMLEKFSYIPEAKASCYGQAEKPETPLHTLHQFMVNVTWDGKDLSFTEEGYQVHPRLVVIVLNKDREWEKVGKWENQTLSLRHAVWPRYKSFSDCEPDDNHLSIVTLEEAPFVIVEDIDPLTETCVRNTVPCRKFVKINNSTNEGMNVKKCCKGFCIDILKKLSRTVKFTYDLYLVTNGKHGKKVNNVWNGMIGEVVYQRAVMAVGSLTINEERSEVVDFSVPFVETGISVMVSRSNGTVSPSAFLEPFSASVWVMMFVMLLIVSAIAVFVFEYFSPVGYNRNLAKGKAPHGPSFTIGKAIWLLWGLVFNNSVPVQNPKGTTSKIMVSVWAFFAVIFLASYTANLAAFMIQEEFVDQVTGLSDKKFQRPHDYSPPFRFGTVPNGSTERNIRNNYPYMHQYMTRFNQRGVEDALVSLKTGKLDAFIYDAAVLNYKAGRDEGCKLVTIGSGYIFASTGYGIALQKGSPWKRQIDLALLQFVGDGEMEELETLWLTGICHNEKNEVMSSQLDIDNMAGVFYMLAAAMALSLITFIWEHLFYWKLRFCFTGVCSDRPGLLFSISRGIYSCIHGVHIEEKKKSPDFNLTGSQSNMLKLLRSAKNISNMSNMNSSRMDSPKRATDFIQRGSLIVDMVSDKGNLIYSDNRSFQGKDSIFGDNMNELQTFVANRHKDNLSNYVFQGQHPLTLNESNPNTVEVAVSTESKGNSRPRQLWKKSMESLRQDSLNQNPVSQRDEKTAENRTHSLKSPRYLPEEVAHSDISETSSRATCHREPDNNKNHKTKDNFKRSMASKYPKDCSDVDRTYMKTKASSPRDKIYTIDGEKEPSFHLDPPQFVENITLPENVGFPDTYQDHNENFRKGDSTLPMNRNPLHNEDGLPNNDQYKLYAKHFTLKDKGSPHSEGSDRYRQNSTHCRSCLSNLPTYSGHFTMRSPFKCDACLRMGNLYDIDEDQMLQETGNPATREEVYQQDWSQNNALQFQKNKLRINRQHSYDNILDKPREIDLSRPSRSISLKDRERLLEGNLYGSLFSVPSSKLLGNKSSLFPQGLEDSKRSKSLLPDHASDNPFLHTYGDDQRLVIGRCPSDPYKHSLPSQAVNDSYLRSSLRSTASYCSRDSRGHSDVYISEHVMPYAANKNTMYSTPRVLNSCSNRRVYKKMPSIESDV
The read-out pIC50 is expressed as -log10 of concentration in moles per litre.

See these solved cases before continuing.
O=C(O)CCCC(=O)N1N=C(c2c(-c3ccc(Cl)cc3)c3ccccc3[nH]c2=O)CC1c1ccc(Cl)cc1 (stereo not shown) [2b]    4.60
O=C(O)CC(F)(F)C(=O)N1N=C(c2c(-c3ccc(Cl)cc3)c3ccccc3[nH]c2=O)C[C@H]1c1ccc(Cl)cc1 [(S)-(−)-2i]    5.33
O=C(O)CC(F)(F)C(=O)N1N=C(c2c(-c3ccc(Cl)cc3)c3ccccc3[nH]c2=O)CC1c1ccc(Cl)cc1 (stereo not shown) [2i]    5.25
NC(=O)CC(F)(F)C(=O)N1N=C(c2c(-c3ccc(Cl)cc3)c3ccccc3[nH]c2=O)CC1c1ccc(Cl)cc1 (stereo not shown) [2k]    5.24
CNC(=O)CC(F)(F)C(=O)N1N=C(c2c(-c3ccc(Cl)cc3)c3ccccc3[nH]c2=O)CC1c1ccc(Cl)cc1 (stereo not shown) [2q]    4.43

Problem: Form: Entry = N[C@@H](CCC(=O)N1N=C(c2c(-c3ccc(Cl)cc3)c3ccccc3[nH]c2=O)CC1c1ccc(Cl)cc1)C(=O)O (stereo partly shown) [2d] | System = GluN1/GluN2A (Rattus norvegicus, UniProt P35439+Q00959) | pIC50 = ____
Result: 4.82

Problem: Form: Entry = O=C(CCc1nnn[nH]1)N1N=C(c2c(-c3ccc(Cl)cc3)c3ccccc3[nH]c2=O)CC1c1ccc(Cl)cc1 (stereo not shown) [2h] | System = GluN1/GluN2A (Rattus norvegicus, UniProt P35439+Q00959) | pIC50 = ____
Result: 4.66

---

assay: Mouse plasma and brain pharmacokinetics, IP administration; type: in vivo; details: male, C57BL/6, mouse, plasma, intraperitoneal, 10 mg/kg, 10 mg/kg IP; 1 hr; read-out: plasma concentration, individual (Group 1-3)
MEASURE_NAME: concentration at 1 h (ng/mL)
# unit: ng/mL | format: bare number

Problem: Can you look up the measured concentration at 1 h of O=C(O)CC(F)(F)C(=O)N1N=C(c2c(-c3ccc(Cl)cc3)c3ccccc3[nH]c2=O)CC1c1ccc(Cl)cc1 (stereo not shown) for me?
Result: 1020
